The reported measurements were obtained from patent US20220362386A1.

Assay: In-vitro metabolism of LDAA compounds using liver microsomes
Assay type: in vitro ADME, human
Conditions: incubation time 30 minutes; 1.0E−07M
Where a name gives a salt, the structure may show the parent alone. Non-standard residues stand in square brackets, D forms with d. Residues, ends and D or L forms follow the SMILES beside them. Dopa = N[C@@H](Cc1ccc(O)c(O)c1)C(=O)O
quantityKind: % Compound Remaining 1st (%)
Give just the number in %; leave the unit off.

[
  {
    "compound": "N[C@@H](CSC[C@H](NC(=O)[C@@H](N)Cc1ccc(O)c(O)c1)C(=O)O)C(=O)O (single isomer, unassigned; peak 2) [LD-LA2 TFA salt, Levodopa Lanthionine Peak 2 TFA Salt]",
    "readoutUnits": "%",
    "% Compound Remaining 1st": 105.6
  },
  {
    "compound": "N[C@@H](Cc1ccc(O)c(O)c1)C(=O)N[C@@H](Cc1c[nH]c2ccccc12)C(=O)O [LD-Trp TFA salt, Levodopa Tryptophan] (H-[Dopa]-Trp-OH)",
    "readoutUnits": "%",
    "% Compound Remaining 1st": 115.2
  },
  {
    "compound": "NC(=O)C[C@H](NC(=O)[C@@H](N)Cc1ccc(O)c(O)c1)C(=O)O [LD-Asn TFA salt, Levodopa Asparagine TFA Salt] (H-[Dopa]-Asn-OH)",
    "readoutUnits": "%",
    "% Compound Remaining 1st": 79.9
  }
]

Kindly review the next compound as well.
Look up and state reported % Compound Remaining 1st for NCCCC[C@H](NC(=O)[C@@H](N)Cc1ccc(O)c(O)c1)C(=O)O [LD-Lys TFA salt, Levodopa Lysine TFA Salt] (H-[Dopa]-Lys-OH) 64.2

====

Assay: In-vitro metabolism of LDAA compounds using liver microsomes
Format: in vitro ADME, human
Conditions: incubation time 30 minutes; 1.0E−07M
Structures can show the parent of a compound that is named as a salt. Non-standard residues stand in square brackets, D forms with d. Residues, ends and D or L forms follow the SMILES beside them. Dopa = N[C@@H](Cc1ccc(O)c(O)c1)C(=O)O
quantityKind: % Compound Remaining 2nd (%)
Give just the number in %; leave the unit off.

A selection of reference data follows.
[
  {
    "molecule": "N[C@@H](Cc1ccc(O)c(O)c1)C(=O)NCC(=O)O [LD-Gly TFA salt, Levodopa Glycine TFA Salt]",
    "% Compound Remaining 2nd [%]": 77.9
  },
  {
    "molecule": "N[C@@H](Cc1ccc(O)c(O)c1)C(=O)N[C@@H](Cc1c[nH]c2ccccc12)C(=O)O [LD-Trp TFA salt, Levodopa Tryptophan] (H-[Dopa]-Trp-OH)",
    "% Compound Remaining 2nd [%]": 92.2
  },
  {
    "molecule": "N[C@@H](Cc1ccc(O)c(O)c1)C(=O)N[C@@H](Cc1ccc(O)cc1)C(=O)O [LD-Tyr TFA salt, Levodopa Tyrosine TFA Salt] (H-[Dopa]-Tyr-OH)",
    "% Compound Remaining 2nd [%]": 110.1
  }
]

Kindly review the next molecule as well.
Look up and state reported % Compound Remaining 2nd for N=C(N)NCCC[C@H](NC(=O)[C@@H](N)Cc1ccc(O)c(O)c1)C(=O)O [LD-Arg TFA salt, Levodopa Arginine TFA Salt] 90.9

====

Assay: In-vitro metabolism of LDAA compounds using liver microsomes
Format: in vitro ADME, human
Settings: incubation time 30 minutes; 1.0E−07M
Structures can show the parent of a compound that is named as a salt. Non-standard residues stand in square brackets, D forms with d. Residues, ends and D or L forms follow the SMILES beside them. Dopa = N[C@@H](Cc1ccc(O)c(O)c1)C(=O)O
Labelling field: enter T if recorded % Compound Remaining 1st is less than 90%. Enter F if it equals or exceeds that cut-off.

[
  {
    "molecule": "N=C(N)NCCC[C@H](NC(=O)[C@@H](N)Cc1ccc(O)c(O)c1)C(=O)O [LD-Arg TFA salt, Levodopa Arginine TFA Salt]",
    "group": "T"
  },
  {
    "molecule": "N[C@@H](Cc1ccc(O)c(O)c1)C(=O)NCC(=O)O [LD-Gly TFA salt, Levodopa Glycine TFA Salt]",
    "group": "T"
  },
  {
    "molecule": "NC(=O)CC[C@H](NC(=O)[C@@H](N)Cc1ccc(O)c(O)c1)C(=O)O [LD-Gln TFA salt, Levodopa Glutamine TFA Salt] (H-[Dopa]-Gln-OH)",
    "group": "T"
  },
  {
    "molecule": "N[C@@H](Cc1ccc(O)c(O)c1)C(=O)O [LD (control), L-3,4-dihydroxyphenylalanine, reference compound]",
    "group": "F"
  }
]

// switching to the query molecule
Does the reported % Compound Remaining 1st of N[C@@H](Cc1ccc(O)c(O)c1)C(=O)N[C@@H](Cc1ccc(O)cc1)C(=O)O [LD-Tyr TFA salt, Levodopa Tyrosine TFA Salt] (H-[Dopa]-Tyr-OH) stay below 90%? F
